target: Glutamate receptor ionotropic, kainate (Rattus norvegicus) (UniProt P22756+Q01812+P42260+P42264+Q63273)
run.description: Inhibition of [3H]KA binding to kainate receptor in rat brain membranes
Type: cell membranes
Parameters: concentration or dose not given beside the values
test.context: concentration not given here
Reported inhibition values for the following compounds.
Numeric answer only, unit % assumed.

{"columns": ["structure.string", "display.unit", "observed.value"],
 "data": [
  ["CCOC(=O)c1nc2c(O)nc3ccc(-n4cnnc4)cc3n2n1", "%", 20]
]}

Which inhibition value belongs to `CCOC(=O)c1nc2c(O)nc3cc(Cl)c(-n4cccc4)cc3n2n1` ?
7

Which inhibition value belongs to `O=C(O)c1nc2c(O)nc3ccc([N+](=O)[O-])cc3n2n1` ?
16

----------
target: Glutamate receptor ionotropic, AMPA (Mus musculus, UniProt P23818+P23819+Q9Z2W8+Q9Z2W9)
run.description: Antagonism at ionotropic glutamate receptor AMPA in mouse cortical wedge preparation
recorded.endpoint: IC50 (µM)
Numeric answer only, unit µM assumed.

{"columns": ["structure.string", "observed.value"],
 "data": [
  ["O=C(O)c1nc2c(O)nc3cc(Cl)c(-n4cncn4)cc3n2n1", 12],
  ["O=C(O)c1nc2c(O)nc3cc(Cl)c(-n4cccc4)cc3n2n1", 3],
  ["O=C(O)c1nc2c(=O)[nH]c3cc(Cl)c(-n4cccn4)cc3n2n1", 3],
  ["O=C(O)c1nc2c(O)nc3cc(Cl)c(-n4cnnc4)cc3n2n1", 2.3]
]}

Now turn to the next compound.
Hi! What's the reported IC50 for `O=Cc1ccn(-c2cc3c(cc2Cl)nc(O)c2nc(C(=O)O)nn23)c1` on Glutamate receptor ionotropic, AMPA (Mus musculus, UniProt P23818+P23819+Q9Z2W8+Q9Z2W9)?
1.2

----------
target: Glutamate receptor ionotropic, AMPA (Rattus norvegicus, UniProt P19490+P19491+P19492+P19493)
run.description: Binding affinity at ionotropic glutamate receptor AMPA in rat cortical membranes [3H]AMPA displacement.
recorded.endpoint: pKi
// returns pKi (minus log10 of molar concentration), number only

Which pKi value belongs to `CCOC(=O)c1nc2c(=O)[nH]c3cc(Cl)c(N)cc3n2n1` ?
4.69

----------
target: Glutamate NMDA receptor (Rattus norvegicus) (UniProt P35439+Q00959+Q00960+Q00961+Q62645+Q8VHN2+Q9R1M7)
run.description: Inhibition of [3H]- glycine binding to NMDA receptor of rat membrane
Set-up: concentration or dose not given beside the values
test.context: concentration not given here
Criterion: inhibition meeting or surpassing 8%. Met: Fulfilled. Not met: Not fulfilled.

Use these answered entries as a reference point.
{"columns": ["structure.string", "assigned.class"],
 "data": [
  ["O=C(O)c1nc2c(O)nc3ccc(-n4cnnc4)cc3n2n1", "Not fulfilled"],
  ["CCOC(=O)c1nc2c(O)nc3ccc(N)cc3n2n1", "Fulfilled"],
  ["O=C(O)c1nc2c(O)nc3cc(Cl)c(-n4ccnc4)cc3n2n1", "Fulfilled"],
  ["Nc1ccc2nc(O)c3nc(C(=O)O)nn3c2c1", "Fulfilled"],
  ["O=C(O)c1nc2c(O)nc3cc(Cl)c(-n4cncn4)cc3n2n1", "Fulfilled"],
  ["CCOC(=O)c1nc2c(O)nc3ccc([N+](=O)[O-])cc3n2n1", "Fulfilled"]
]}

In plain terms: is recorded inhibition at least 8% for `CCOC(=O)c1nc2c(O)nc3cc(Cl)c(-n4cnnc4)cc3n2n1` ?
Fulfilled

In plain terms: is recorded inhibition at least 8% for `CCOC(=O)c1nc2c(O)nc3cc(Cl)c([N+](=O)[O-])cc3n2n1` ?
Fulfilled

In plain terms: is recorded inhibition at least 8% for `CCOC(=O)c1nc2c(O)nc3ccc(-n4cnnc4)cc3n2n1` ?
Not fulfilled

In plain terms: is recorded inhibition at least 8% for `CCOC(=O)c1nc2c(O)nc3cc(Cl)c(-n4ccnc4)cc3n2n1` ?
Fulfilled

In plain terms: is recorded inhibition at least 8% for `O=C(O)c1nc2c(O)nc3cc(-n4cnnc4)ccc3n2n1` ?
Not fulfilled

In plain terms: is recorded inhibition at least 8% for `NS(=O)(=O)c1cccc2c1c([N+](=O)[O-])cc1nc(O)c(O)nc12` ?
Not fulfilled

In plain terms: is recorded inhibition at least 8% for `CCOC(=O)c1nc2c(O)nc3cc(Cl)c(-n4cncn4)cc3n2n1` ?
Fulfilled
